target: FoxA (Salmonella enterica, UniProt E1W8M5); test: […]-DFOE radioligand binding to whole Salmonella cells expressing FoxA, at […]-4 °C with CCCP, filtration and scintillation counting; pH […] and […]
Sequence (E1W8M5 31-702): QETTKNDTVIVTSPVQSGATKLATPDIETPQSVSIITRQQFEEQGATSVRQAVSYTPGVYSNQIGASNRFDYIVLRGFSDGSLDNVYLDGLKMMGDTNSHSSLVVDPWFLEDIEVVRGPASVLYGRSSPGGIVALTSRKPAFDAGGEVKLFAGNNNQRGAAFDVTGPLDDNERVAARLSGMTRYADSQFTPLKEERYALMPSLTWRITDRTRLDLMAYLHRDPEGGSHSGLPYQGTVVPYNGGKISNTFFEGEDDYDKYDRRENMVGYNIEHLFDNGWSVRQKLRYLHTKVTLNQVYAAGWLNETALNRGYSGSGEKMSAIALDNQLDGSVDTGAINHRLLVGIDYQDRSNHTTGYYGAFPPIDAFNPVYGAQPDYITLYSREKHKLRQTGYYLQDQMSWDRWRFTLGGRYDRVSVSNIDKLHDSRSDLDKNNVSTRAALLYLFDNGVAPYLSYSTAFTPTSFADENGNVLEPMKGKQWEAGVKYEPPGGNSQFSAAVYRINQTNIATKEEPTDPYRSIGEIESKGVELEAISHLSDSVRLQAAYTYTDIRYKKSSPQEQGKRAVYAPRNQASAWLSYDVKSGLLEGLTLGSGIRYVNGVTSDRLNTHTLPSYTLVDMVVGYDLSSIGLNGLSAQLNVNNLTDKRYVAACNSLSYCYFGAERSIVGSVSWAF
pKd: −log10 of the molar value.
Quantity Kind: pKd

> print(dat)
                                   molecule                             system.tested  result
1  O=C1CCC(=O)N(O)CCCCCNC(=O)CCC(=O)N(O)CCCCCNC(=O)CCC(=O)N(O)CCCCCN1 [DFOE, ferrioxamine E]  FoxA (Salmonella enterica, UniProt E1W8M5)   ~8.49

The reported numbers originate from paper PMC12816392.
